B1: TPR 5TU (parent)
chain: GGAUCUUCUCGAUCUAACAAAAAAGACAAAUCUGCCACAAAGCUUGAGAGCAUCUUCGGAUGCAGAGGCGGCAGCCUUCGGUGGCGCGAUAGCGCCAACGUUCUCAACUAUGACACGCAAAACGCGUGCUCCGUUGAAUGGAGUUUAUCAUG

# Variants of: B1
# assay_info: polymerase ribozyme fitness, log enrichment relative to wild type (log ratio); higher = more active; in vitro selection for triplet polymerase activity
This sample holds only a part of the variants without activity.
Would you mind labelling by polymerase ribozyme fitness (log ratio)? At or over -1 is Criterion met, under is Criterion not met.

U53A U101G C125A | Criterion met
A47U A60C C125U | Criterion not met
A52U G74A C87A A119U U148G | Criterion not met

In the following, a different variant is considered.
Challenge: In plain terms: is recorded polymerase ribozyme fitness (log ratio) at least -1 for U53A C69U A89G G94U C96U A115U U148G U151G ?
Response given: Criterion not met
